Entry source: patent US20060257938A1

Below, each entry is listed alongside its reported ΔR/DRAΔ2 AA.
# METHOD_SUMMARY: Probe fluorescence ratio response to arachidonic acid relative to ADIFAB2
# Type: binding
# EXPERIMENTAL_PARAMETERS: Table 5; Arachidonic acid

{"columns": ["MOLECULE", "ΔR/DRAΔ2 AA"],
 "data": [
  ["L2P11B4: FABP probe, substitutions M18V G31A A73W vs SEQ ID NO: 2 (protein, listed as Rattus norvegicus, PEPTIDE (1)...(131) wild-type rat intestinal fatty acid binding protein) AFDGTWKVDRNENYEKFVEKMGINVVKRKLAAHDNLKLTITQEGNKFTVKESSNFRNIDVVFELGVDFAYSLWDGTELTGTWTMEGNKLVGKFKRVDNGKELIAVREISGNELIQTYTYEGVEAKRIFKKE", 1.8],
  ["L2P21C1: FABP probe, substitutions M18I G31Y A73V vs SEQ ID NO: 2 (protein, listed as Rattus norvegicus, PEPTIDE (1)...(131) wild-type rat intestinal fatty acid binding protein) AFDGTWKVDRNENYEKFIEKMGINVVKRKLYAHDNLKLTITQEGNKFTVKESSNFRNIDVVFELGVDFAYSLVDGTELTGTWTMEGNKLVGKFKRVDNGKELIAVREISGNELIQTYTYEGVEAKRIFKKE", 2.8],
  ["L2P12C5: FABP probe, substitutions M18I G31I F55M A73I vs SEQ ID NO: 2 (protein, listed as Rattus norvegicus, PEPTIDE (1)...(131) wild-type rat intestinal fatty acid binding protein) AFDGTWKVDRNENYEKFIEKMGINVVKRKLIAHDNLKLTITQEGNKFTVKESSNMRNIDVVFELGVDFAYSLIDGTELTGTWTMEGNKLVGKFKRVDNGKELIAVREISGNELIQTYTYEGVEAKRIFKKE", 1.3],
  ["L2P1E6: FABP probe, substitutions M18L A73L vs SEQ ID NO: 2 (protein, listed as Rattus norvegicus, PEPTIDE (1)...(131) wild-type rat intestinal fatty acid binding protein) AFDGTWKVDRNENYEKFLEKMGINVVKRKLGAHDNLKLTITQEGNKFTVKESSNFRNIDVVFELGVDFAYSLLDGTELTGTWTMEGNKLVGKFKRVDNGKELIAVREISGNELIQTYTYEGVEAKRIFKKE", 0.4],
  ["L2P8B8: FABP probe, substitution A73F vs SEQ ID NO: 2 (protein, listed as Rattus norvegicus, PEPTIDE (1)...(131) wild-type rat intestinal fatty acid binding protein) AFDGTWKVDRNENYEKFMEKMGINVVKRKLGAHDNLKLTITQEGNKFTVKESSNFRNIDVVFELGVDFAYSLFDGTELTGTWTMEGNKLVGKFKRVDNGKELIAVREISGNELIQTYTYEGVEAKRIFKKE", 1.1],
  ["L2P4C5: FABP probe, substitutions M18I G31Y vs SEQ ID NO: 2 (protein, listed as Rattus norvegicus, PEPTIDE (1)...(131) wild-type rat intestinal fatty acid binding protein) AFDGTWKVDRNENYEKFIEKMGINVVKRKLYAHDNLKLTITQEGNKFTVKESSNFRNIDVVFELGVDFAYSLADGTELTGTWTMEGNKLVGKFKRVDNGKELIAVREISGNELIQTYTYEGVEAKRIFKKE", 2.2],
  ["L2P17H10: FABP probe, substitutions M18G G31F A73L vs SEQ ID NO: 2 (protein, listed as Rattus norvegicus, PEPTIDE (1)...(131) wild-type rat intestinal fatty acid binding protein) AFDGTWKVDRNENYEKFGEKMGINVVKRKLFAHDNLKLTITQEGNKFTVKESSNFRNIDVVFELGVDFAYSLLDGTELTGTWTMEGNKLVGKFKRVDNGKELIAVREISGNELIQTYTYEGVEAKRIFKKE", 1.8],
  ["L2P16A3: FABP probe, substitutions M18I G31L A73G vs SEQ ID NO: 2 (protein, listed as Rattus norvegicus, PEPTIDE (1)...(131) wild-type rat intestinal fatty acid binding protein) AFDGTWKVDRNENYEKFIEKMGINVVKRKLLAHDNLKLTITQEGNKFTVKESSNFRNIDVVFELGVDFAYSLGDGTELTGTWTMEGNKLVGKFKRVDNGKELIAVREISGNELIQTYTYEGVEAKRIFKKE", 1.0],
  ["L2P21G3: FABP probe, substitutions M18I G31M F55M vs SEQ ID NO: 2 (protein, listed as Rattus norvegicus, PEPTIDE (1)...(131) wild-type rat intestinal fatty acid binding protein) AFDGTWKVDRNENYEKFIEKMGINVVKRKLMAHDNLKLTITQEGNKFTVKESSNMRNIDVVFELGVDFAYSLADGTELTGTWTMEGNKLVGKFKRVDNGKELIAVREISGNELIQTYTYEGVEAKRIFKKE", 1.0],
  ["L2P2E11: FABP probe, substitutions M18I G31F vs SEQ ID NO: 2 (protein, listed as Rattus norvegicus, PEPTIDE (1)...(131) wild-type rat intestinal fatty acid binding protein) AFDGTWKVDRNENYEKFIEKMGINVVKRKLFAHDNLKLTITQEGNKFTVKESSNFRNIDVVFELGVDFAYSLADGTELTGTWTMEGNKLVGKFKRVDNGKELIAVREISGNELIQTYTYEGVEAKRIFKKE", 1.9]
]}
